System: Mycobacterium intracellulare
Test protocol: Antitubercular activity against Mycobacterium intracellulare ATCC 35743 assessed as growth inhibition after 48 hr by NCCLS agar dilution method
Type: functional
Run conditions: ATCC 35743, 48 h
Property label: MIC

The cases that follow already have their MIC on record.
Molecule: Cc1cccc(Nc2ccccc2C(=O)N/N=C2\CC3CCC2(C)C3(C)C)c1C (configuration not stated)
MIC: > 100 µg/mL
//
Molecule: CCn1cc(C(=O)N/N=C\C=C(/C)CCC=C(C)C)c(=O)c2ccc(C)nc21
MIC: > 100 µg/mL
//
Molecule: C=C(C)C1CC=C(C)/C(=N/NC(=O)c2ccccc2Nc2cccc(C(F)(F)F)c2)C1 (configuration not stated)
MIC: > 100 µg/mL
//
Molecule: C=C(C)C1CC=C(C)/C(=N/NC(=O)c2ccncc2)C1 (configuration not stated)
MIC: 12 µg/mL
//
Molecule: CCn1cc(C(=O)N/N=C2\CC3CCC2(C)C3(C)C)c(=O)c2ccc(C)nc21 (configuration not stated)
MIC: 50 µg/mL
//
Molecule: CC(C)=CCC/C(C)=C/C=N/NC(=O)c1ccncc1
MIC: > 100 µg/mL

**Q:** Returns the measured MIC for the input molecule. Input: C=C(C)C1CC=C(C)/C(=N/NC(=O)c2ccccc2Nc2cccc(C)c2C)C1 (configuration not stated)
**A:** > 100 µg/mL

**Q:** Value lookup for MIC; key = CC12CCC(C/C1=N\NC(=O)c1ccccc1Nc1cccc(C(F)(F)F)c1)C2(C)C (configuration not stated)
**A:** > 100 µg/mL

**Q:** Can you share its MIC? I mean this molecule: C=C(C)C1CC=C(C)/C(=N\NC(=O)c2cn(CC)c3nc(C)ccc3c2=O)C1 (configuration not stated)
**A:** > 100 µg/mL

**Q:** Quick check: MIC of NNC(=O)c1ccncc1 ?
**A:** 12.5 µg/mL

**Q:** Request the reported MIC associated with CC12CCC(C/C1=N/NC(=O)c1ccncc1)C2(C)C (configuration not stated)
**A:** 50 µg/mL

**Q:** What value of MIC has been reported for the following molecule? CC(C)=CCC/C(C)=C\C=N/NC(=O)c1ccccc1Nc1cccc(C)c1C
**A:** > 100 µg/mL
